Source of measurements: patent US4284619A

test_method_notes: Biodistribution bioassay of I-123-labeled compounds in rats, 5 minutes after tail vein injection (blood, brain, heart, stomach activity)
Type: in vivo, Female Sprague-Dawley rats
study_conditions: rat, in vivo, iv
test_readout: Percent Dose in Stomach (Percent Dose)

{"molecule": "O=C(OCc1ccccc1)c1ccccc1[123I] [Example 7, benzyl o-iodobenzoate]", "Percent Dose in Stomach / Percent Dose": 1.46}
{"molecule": "O=C(Oc1ccccc1)c1ccccc1[123I] [Example 6, phenyl o-iodobenzoate]", "Percent Dose in Stomach / Percent Dose": 0.92}
{"molecule": "O=C(Oc1cccc(O)c1O)c1ccccc1[123I] [Example 8, pyrogallyl o-iodobenzoate]", "Percent Dose in Stomach / Percent Dose": 0.77}
{"molecule": "CCCCCCCCCCCCCCCCCCOC(=O)c1ccccc1[123I] [Example 10, octadecyl o-iodobenzoate]", "Percent Dose in Stomach / Percent Dose": 0.92}

(a) CCOC(=O)c1ccccc1[123I] [Example 2, ethyl o-iodobenzoate]
(b) Cc1c([123I])c(=O)n(-c2ccccc2)n1C [^I 123-iodoantipyrine, 4-iodoantipyrine, reference compound]
[in] Please tell me which of the two, a or b , has the higher reported Percent Dose in Stomach value. Respond using the label that marks the chosen record.
[out] b

====

test_method_notes: Biodistribution bioassay of I-123-labeled compounds in rats, 5 minutes after tail vein injection (blood, brain, heart, stomach activity)
Assay type: in vivo, Female Sprague-Dawley rats
study_conditions: rat, in vivo, iv
test_readout: Ratio Brain/Blood

(a) O=C(OCc1ccccc1)c1ccccc1[123I] [Example 7, benzyl o-iodobenzoate]
(b) CCOC(=O)c1ccccc1[123I] [Example 2, ethyl o-iodobenzoate]
(c) O=C(Oc1cccc(O)c1O)c1ccccc1[123I] [Example 8, pyrogallyl o-iodobenzoate]
[in] Output the listed items in decreasing order of Ratio Brain/Blood. Field: ranking. Enter the labels in the order requested.
[out] a, b, c

(a) CCCCCCCCCCCCCCCCCCOC(=O)c1ccccc1[123I] [Example 10, octadecyl o-iodobenzoate]
(b) O=C(Oc1ccccc1)c1ccccc1[123I] [Example 6, phenyl o-iodobenzoate]
[in] Please tell me which of the two, a or b , has the higher reported Ratio Brain/Blood value. Respond using the label that marks the chosen record.
[out] b
(b: 0.20, a: 0.12)

====

test_method_notes: Biodistribution bioassay of I-123-labeled compounds in rats, 5 minutes after tail vein injection (blood, brain, heart, stomach activity)
Format: in vivo, Female Sprague-Dawley rats
study_conditions: rat, in vivo, iv
test_readout: Ratio Heart/Blood

{"compound": "O=C(Oc1cccc(O)c1O)c1ccccc1[123I] [Example 8, pyrogallyl o-iodobenzoate]", "test_readout": "Ratio Heart/Blood", "result": 0.51}
{"compound": "CCOC(=O)c1ccccc1[123I] [Example 2, ethyl o-iodobenzoate]", "test_readout": "Ratio Heart/Blood", "result": 0.59}
{"compound": "O=C(Oc1ccccc1)c1ccccc1[123I] [Example 6, phenyl o-iodobenzoate]", "test_readout": "Ratio Heart/Blood", "result": 0.60}
{"compound": "O=C(OCc1ccccc1)c1ccccc1[123I] [Example 7, benzyl o-iodobenzoate]", "test_readout": "Ratio Heart/Blood", "result": 0.65}
{"compound": "CCCCCCCCCCCCCCCCCCOC(=O)c1ccccc1[123I] [Example 10, octadecyl o-iodobenzoate]", "test_readout": "Ratio Heart/Blood", "result": 0.53}
